Read-out record for PDE4B1 (Homo sapiens, UniProt Q07343): IC50
property name: IC50 (nM)

(a) COc1ccc(NC(=O)c2cnc(SC)nc2N2CCOCC2)cc1OC [compound 1]
(b) COc1ccc(-c2nc(C(F)(F)F)ncc2C(=O)Nc2ccncc2)cc1OC [compound 2]
In terms of reported IC50, does a or b have the smaller number? // output: label of the selected item
b

* * *

Target: PDE4D7 (Homo sapiens)
Sequence (Q08499 1-748 isoform Q08499-11): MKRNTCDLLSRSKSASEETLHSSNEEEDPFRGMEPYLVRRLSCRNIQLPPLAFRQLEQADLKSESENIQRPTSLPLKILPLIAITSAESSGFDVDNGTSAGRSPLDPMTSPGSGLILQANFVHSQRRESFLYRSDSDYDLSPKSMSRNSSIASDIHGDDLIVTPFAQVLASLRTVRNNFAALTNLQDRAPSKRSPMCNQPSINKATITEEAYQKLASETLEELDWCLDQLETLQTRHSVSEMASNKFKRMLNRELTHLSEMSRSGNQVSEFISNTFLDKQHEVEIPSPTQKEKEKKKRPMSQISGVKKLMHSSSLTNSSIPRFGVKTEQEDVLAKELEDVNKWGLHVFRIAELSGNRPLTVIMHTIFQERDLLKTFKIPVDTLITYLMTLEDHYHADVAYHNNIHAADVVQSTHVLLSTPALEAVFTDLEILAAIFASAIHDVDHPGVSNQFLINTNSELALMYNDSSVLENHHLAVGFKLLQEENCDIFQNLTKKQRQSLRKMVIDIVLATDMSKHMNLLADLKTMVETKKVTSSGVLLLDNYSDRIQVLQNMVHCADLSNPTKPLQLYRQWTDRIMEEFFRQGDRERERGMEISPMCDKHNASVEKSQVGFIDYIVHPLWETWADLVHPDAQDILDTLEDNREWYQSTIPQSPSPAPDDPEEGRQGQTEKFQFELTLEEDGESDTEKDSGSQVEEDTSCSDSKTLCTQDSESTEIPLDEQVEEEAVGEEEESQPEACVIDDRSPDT
pIC50: −log10 of the molar value.
property name: pIC50

(I) COc1ccc(-c2nc(C(F)(F)F)ncc2C(=O)Nc2ccncc2)cc1OC
(II) COc1ccc(NC(=O)c2cnc(SC)nc2N2CCOCC2)cc1OC
Of the two listed items, I and II , which carries the larger pIC50 figure? // output: label of the selected item
I

* * *

Biological target: PDE4A4 (Homo sapiens, UniProt P27815)
Sequence (P27815 whole entry): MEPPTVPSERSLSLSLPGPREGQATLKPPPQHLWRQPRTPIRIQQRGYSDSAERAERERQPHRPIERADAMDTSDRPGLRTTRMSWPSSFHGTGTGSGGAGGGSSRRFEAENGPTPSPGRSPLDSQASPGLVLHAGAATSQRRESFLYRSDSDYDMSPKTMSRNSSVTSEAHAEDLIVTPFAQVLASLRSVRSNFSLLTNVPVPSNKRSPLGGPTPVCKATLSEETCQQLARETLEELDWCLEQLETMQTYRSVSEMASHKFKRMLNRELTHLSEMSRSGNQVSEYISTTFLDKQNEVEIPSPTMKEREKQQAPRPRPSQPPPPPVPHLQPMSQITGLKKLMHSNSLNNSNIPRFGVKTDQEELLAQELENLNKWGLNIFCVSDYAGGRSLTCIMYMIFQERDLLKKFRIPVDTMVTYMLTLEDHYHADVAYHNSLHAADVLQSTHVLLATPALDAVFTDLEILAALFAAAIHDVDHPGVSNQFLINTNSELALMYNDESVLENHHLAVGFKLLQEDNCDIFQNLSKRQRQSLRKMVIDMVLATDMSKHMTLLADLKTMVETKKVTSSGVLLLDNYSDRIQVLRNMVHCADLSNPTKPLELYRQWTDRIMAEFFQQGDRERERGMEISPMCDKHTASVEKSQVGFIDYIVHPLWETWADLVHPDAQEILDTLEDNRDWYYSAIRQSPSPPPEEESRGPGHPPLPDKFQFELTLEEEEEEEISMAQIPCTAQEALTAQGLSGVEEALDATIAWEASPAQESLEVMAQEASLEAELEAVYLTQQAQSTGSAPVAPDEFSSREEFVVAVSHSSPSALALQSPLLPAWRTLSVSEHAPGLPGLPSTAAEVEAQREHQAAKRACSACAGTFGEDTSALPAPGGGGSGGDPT
property name: IC50 (nM)
Write it as a number; the unit nM goes unstated.

Give the value of IC50 reported for the following: COc1ccc(NC(=O)c2cnc(SC)nc2N2CCOCC2)cc1OC [compound 1]
45

* * *

Target: PDE4C1 (Homo sapiens)
Sequence (Q08493 whole entry): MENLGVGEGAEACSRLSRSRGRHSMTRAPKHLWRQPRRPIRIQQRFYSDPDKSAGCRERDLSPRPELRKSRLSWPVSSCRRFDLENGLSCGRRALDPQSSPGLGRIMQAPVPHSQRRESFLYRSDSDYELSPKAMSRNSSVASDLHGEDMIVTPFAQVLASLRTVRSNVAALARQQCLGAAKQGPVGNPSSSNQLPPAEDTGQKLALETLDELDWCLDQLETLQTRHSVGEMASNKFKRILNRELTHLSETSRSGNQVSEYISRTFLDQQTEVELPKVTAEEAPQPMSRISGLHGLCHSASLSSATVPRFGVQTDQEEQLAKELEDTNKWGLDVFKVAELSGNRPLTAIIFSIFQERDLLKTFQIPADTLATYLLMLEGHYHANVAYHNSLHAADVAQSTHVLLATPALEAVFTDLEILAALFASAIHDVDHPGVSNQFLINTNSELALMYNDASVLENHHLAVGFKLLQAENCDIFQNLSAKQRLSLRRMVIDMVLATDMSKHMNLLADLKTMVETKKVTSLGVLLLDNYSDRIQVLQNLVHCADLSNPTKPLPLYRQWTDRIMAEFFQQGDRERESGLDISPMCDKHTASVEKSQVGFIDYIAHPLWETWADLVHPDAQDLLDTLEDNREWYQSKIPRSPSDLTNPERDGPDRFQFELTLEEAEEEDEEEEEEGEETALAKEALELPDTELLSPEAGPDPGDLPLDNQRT
property name: pIC50
API: returns pIC50 as number; meaning -log10 of concentration in mol/L.

Give the value of pIC50 reported for the following: COc1ccc(NC(=O)c2cnc(SC)nc2N2CCOCC2)cc1OC
7.11

* * *

pIC50: −log10 of the molar value.
Read-out record for PDE7 (Homo sapiens, UniProt Q13946): pIC50
property name: pIC50

COc1ccc(NC(=O)c2cnc(SC)nc2N2CCOCC2)cc1OC : 6.41
COc1ccc(-c2nc(C(F)(F)F)ncc2C(=O)Nc2ccncc2)cc1OC : 6.60
